EXPERIMENTAL TARGET: ARVCF peptide (PQPVDSWV-COOH) (Homo sapiens, UniProt O00192)
Construct: made in house; host or cells: E. coli
ASSAY PROCEDURE: Surface plasmon resonance (SPR, BIAcore) analysis of motif binding, ARVCF peptide
EXPERIMENTAL PARAMETERS: Table 4; SPR; read-out: Kd [nM] ARVCF
RECORDED ENDPOINT: Kd

Measured Kd of ePDZ-b2: second-generation affinity-matured variant of ePDZ-b, SEQ ID NO: 143 (SYYGVS) : 4 nM

Continue with the next substance.
Measured Kd of ePDZ-b1: second-generation affinity-matured variant of ePDZ-b, SEQ ID NO: 151 (HYNYHYYS) : 5 nM

====

EXPERIMENTAL TARGET: ARVCF peptide (PQPVDSWV-COOH) (Homo sapiens)
Construct: made in house; host or cells: E. coli
ASSAY PROCEDURE: Surface plasmon resonance (SPR, BIAcore) analysis of motif binding, ARVCF peptide
EXPERIMENTAL PARAMETERS: Table 2; SPR; read-out: Kd, ARVCF PQPVDSWV
RECORDED ENDPOINT: Kd

Measured Kd of wt-PDZ: wild-type PDZ domain of Erbin (SEQ ID NO: 146) (YYDSHVS) [reference compound] : ~10 µM
